Molecular target: T1, human TIGIT on Jurkat cells (TIGIT/NFAT reporter Jurkat cells, BPS Bioscience #60538); Promega TIGIT Effector … (human, UniProt Q495A1 22-244)
T1 construct: whole, on cells; Same protein on two bought Jurkat lines (flow cytometry: BPS; bioassay: Promega); also called hu TIGIT cells; cells expressing human TIGIT
T1 sequence (looked up): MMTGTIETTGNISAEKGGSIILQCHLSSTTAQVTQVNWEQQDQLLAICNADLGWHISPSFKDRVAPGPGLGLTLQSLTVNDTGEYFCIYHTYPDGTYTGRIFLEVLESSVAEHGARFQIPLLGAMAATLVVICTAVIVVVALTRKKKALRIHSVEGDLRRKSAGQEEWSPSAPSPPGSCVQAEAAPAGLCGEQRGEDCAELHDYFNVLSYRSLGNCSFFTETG
Test: flow cytometry, TIGIT/NFAT Jurkat cells, 10 ug/ml
// reported MFI for each item listed

binder	unitOfMeasurement	MFI
43645p1.D7 (scFv, V domains shown) VH: EVQLLESGGGLVQPGGSLRLSCAASGFTFSRNSMSWVRQAPGKGLEWVSTINSGSSYTYYADSVKGRFTISRDNSKNTLYLQMNSLRAEDTAVYYCAKDNCNGYHCYGMDVWGLGTTVTVSS VL: QSVLTQPPSASGTPGQRVTISCSGSTSNVGDHYVHWYQQLPGTAPKLLIYKDDQRPSGVPDRFSGSKSGTSASLAISGLQSEDEADYYCSTWDNTLNGWVFGGGTKLTVL	MFI	9660
43586p2.G02 (scFv, V domains shown) VH: EVQLLESGGGLVQPGGSLRLSCAASGFTFSSYWMNWVRQAPGKGLEWVSGIYSGGTTYYADSVKGRFTISRDNSKNTLYLQMNSLRAEDTAVYYCTRENWKENNAMDVWGQGTTVTVSS VL: QSVLTQPPSASGTPGQRVTISCSGVTSNIASYHVYWYQQLPGTAPKLLIYLNSQRPSGVPDRFSASKSGTSASLAISGLQSEDEADYYCATWDGSQNGWVFGGGTKLTVL	MFI	7590
43586p1.2.F9 (scFv, V domains shown) VH: EVQLLESGGGLVQPGGSLRLSCAASGFTFDDYVMSWVRQAPGKGLEWVSLINWNGDKTYYADSVKGRFTISRDNSKNTLYLQMNSLRAEDTAIYYCAKHWIVFQYGMDVWGRGTTVTVSS VL: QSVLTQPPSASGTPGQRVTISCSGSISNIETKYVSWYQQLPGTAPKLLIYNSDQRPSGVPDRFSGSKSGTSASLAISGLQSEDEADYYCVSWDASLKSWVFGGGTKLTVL	MFI	9110
43352p1.D11 (scFv, V domains shown) VH: DVQLVESGGGVVRPGESLRLSCAASGFTFSSHAMSWVRQAPGEGLEWVSLISGNGVSAYYADSVKGRFTISRDNSKNTLYLQMNSLSAEDTAIYYCARGTYLISFFDYWGLGTLVTVSS VL: QSVLTQPPSASGTPGQRVTISCSGISAKIGNNYVSWYQQLPGTAPKLLIYFNNQRPSGVPDRFSGSKSGTSASLAISGLQSEDEADYYCASWDDSLNAWLFGGGTKLTVL	MFI	8650
